Test system: human colon cancer HCT-116
Assay: Subcutaneously transplanted tumors in nude mice
Assay type: in vivo, BALB/cA nude mice
Settings: Table 2.3; 20 mg/kg; d 14
Please provide measured Weight (mean ± SD) d 14 for the entries that follow.
Kindly provide the numeric value in g only, without the unit symbol.

INPUT: Quick one: Weight (mean ± SD) d 14 of C/C=C1\NC(=O)c2csc(n2)CNC(=O)C[C@@H](/C=C/CCSC(=O)CCCCCCC)OC(=O)[C@H](Cc2ccc(O)cc2)NC1=O [Compound 1-8] ?
OUTPUT: 14.0

INPUT: Quick one: Weight (mean ± SD) d 14 of C/C=C1\NC(=O)c2csc(n2)CNC(=O)C[C@@H](/C=C/CCSC(=O)CCCCCCC)OC(=O)[C@H](C)NC1=O [Compound 1-4] ?
OUTPUT: 13.8

INPUT: Quick one: Weight (mean ± SD) d 14 of C/C=C1\NC(=O)c2csc(n2)CNC(=O)C[C@@H](/C=C/CCSC(=O)CCCCCCC)OC(=O)[C@H](C(C)(C)C)NC1=O [Compound 1-6] ?
OUTPUT: 14.8

INPUT: Quick one: Weight (mean ± SD) d 14 of C/C=C1\NC(=O)c2csc(n2)CNC(=O)C[C@@H](/C=C/CCSC(=O)CCCCCCC)OC(=O)[C@H](Cc2ccccc2)NC1=O [Compound 1-7] ?
OUTPUT: 14.0

====

Molecular target: HDAC7 (Homo sapiens, UniProt Q8WUI4)
Sequence (Q8WUI4 1-952): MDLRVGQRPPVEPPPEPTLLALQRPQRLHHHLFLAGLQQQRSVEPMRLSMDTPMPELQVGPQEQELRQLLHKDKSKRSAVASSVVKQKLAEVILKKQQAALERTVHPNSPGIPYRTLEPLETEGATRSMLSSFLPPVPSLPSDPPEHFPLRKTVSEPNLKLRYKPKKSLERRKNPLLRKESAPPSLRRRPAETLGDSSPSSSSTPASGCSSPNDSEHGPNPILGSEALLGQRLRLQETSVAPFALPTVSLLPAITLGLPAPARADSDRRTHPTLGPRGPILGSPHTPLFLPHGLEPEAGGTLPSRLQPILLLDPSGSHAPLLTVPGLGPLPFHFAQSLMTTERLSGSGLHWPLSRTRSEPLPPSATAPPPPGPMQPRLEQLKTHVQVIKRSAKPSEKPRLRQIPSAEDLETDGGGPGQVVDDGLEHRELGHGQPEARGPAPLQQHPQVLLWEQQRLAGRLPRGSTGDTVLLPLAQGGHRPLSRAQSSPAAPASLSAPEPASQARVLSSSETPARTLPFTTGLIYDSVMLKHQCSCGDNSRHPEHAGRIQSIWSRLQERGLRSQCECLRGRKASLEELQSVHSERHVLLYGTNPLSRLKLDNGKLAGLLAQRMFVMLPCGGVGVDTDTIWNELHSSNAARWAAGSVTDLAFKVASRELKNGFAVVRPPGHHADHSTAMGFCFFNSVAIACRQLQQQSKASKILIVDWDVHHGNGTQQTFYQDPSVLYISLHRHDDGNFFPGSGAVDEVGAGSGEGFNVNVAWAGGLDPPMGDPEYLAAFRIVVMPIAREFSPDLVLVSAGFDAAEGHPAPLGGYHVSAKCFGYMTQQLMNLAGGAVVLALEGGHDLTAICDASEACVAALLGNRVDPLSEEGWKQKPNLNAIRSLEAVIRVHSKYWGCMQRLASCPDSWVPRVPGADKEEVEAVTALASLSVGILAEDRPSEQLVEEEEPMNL
Assay: Measurement of biochemical activities of HDAC (fluorescently-labeled acetylated lysine substrate)
MEASUREMENT_TYPE: IC50 HDAC7

C/C=C1\NC(=O)c2csc(n2)CNC(=O)C[C@@H](/C=C/CCSC(=O)CCO)OC(=O)[C@H](C(C)C)NC1=O [Compound 6-5] : no activity
C/C=C1\NC(=O)c2csc(n2)CNC(=O)C[C@@H](/C=C/CCSC(=O)CCCCCCC)OC(=O)[C@H](Cc2cccc3ccccc23)NC1=O [Compound 1-9] : no activity
C/C=C1\NC(=O)c2csc(n2)[C@H](C)NC(=O)C[C@@H](/C=C/CCSC(=O)CCCCCCC)OC(=O)[C@H](C(C)C)NC1=O [Compound 4-2] : no activity
